Provenance of the data: patent US6087355A

# Tested on: S. aureus strain ATCC 13709 (methicillin-susceptible)
# experiment summary: Murine model for lethal bacteremic peritonitis
# Format: in vivo, female Swiss-Webster mice
# assay conditions: Staphylococcus aureus, ATCC13709; Dose 1.25 mg/kg, SC, 72 h; read-out: Survivors (converted)
Counter-ions that a name gives are not always drawn.
property: responders at 1.25 mg/kg (%)
Return type: number; implicit unit %.

The cases that follow already have their responders at 1.25 mg/kg on record.
N=C(N)SCc1cnccc1SC1=C(C(=O)O)N2C(=O)[C@@H](NC(=O)Cc3ccccc3)[C@H]2SC1 [Cmpd 1, trifluoroacetic acid salt]	80
CNCCNCCSCc1cnccc1SC1=C(C(=O)O)N2C(=O)[C@@H](NC(=O)/C(=N\O)c3nc(N)sc3Cl)[C@H]2SC1 [Cmpd 57, trifluoroacetic acid salt]	40
NC(=O)[C@@H](N)CSCc1cnccc1SC1=C(C(=O)O)N2C(=O)[C@@H](NC(=O)/C(=N\O)c3nc(N)sc3Cl)[C@H]2SC1 [Cmpd 59, trifluoroacetic acid salt]	40
NCC(=O)NCCSCc1cnccc1SC1=C(C(=O)O)N2C(=O)[C@@H](NC(=O)/C(=N\O)c3nc(N)sc3Cl)[C@H]2SC1 [Cmpd 29, trifluoroacetic acid salt]	90

Let us move to another entry and its responders at 1.25 mg/kg.
I'd like to know its responders at 1.25 mg/kg. The compound in question is CNCC(=O)NCCSCc1cnccc1SC1=C(C(=O)O)N2C(=O)[C@@H](NC(=O)/C(=N\O)c3csc(N)n3)[C@H]2SC1 [Cmpd 18, trifluoroacetic acid salt]
20

* * *

MIC overview
# Tested on: S. aureus ATCC 29213
# experiment summary: In vitro MIC, agar dilution
# Type: cell-based
# assay conditions: Staphylococcus aureus, ATCC29213, read-out: minimum inhibitory concentration (MIC)
Structures can show the parent of a compound that is named as a salt.

NCCSCc1cnccc1SC1=C(C(=O)O)N2C(=O)[C@@H](NC(=O)/C(=N\OCCF)c3csc(N)n3)[C@H]2SC1 [Cmpd 23, trifluoroacetic acid salt]	1 µg/mL
N=C(N)NCCSCc1cnccc1SC1=C(C(=O)O)N2C(=O)[C@@H](NC(=O)/C(=N\O)c3csc(N)n3)[C@H]2SC1 [Cmpd 14, trifluoroacetic acid salt]	0.5 µg/mL

Field: next compound
Recorded MIC of NCC(=O)NCCSCc1cnccc1SC1=C(C(=O)O)N2C(=O)[C@@H](NC(=O)/C(=N\O)c3csc(N)n3)[C@H]2SC1 [Cmpd 24, trifluoroacetic acid salt] , please.
1 µg/mL

* * *

# Test system: S. aureus strain ATCC 13709 (methicillin-susceptible)
# experiment summary: Murine model for lethal bacteremic peritonitis
# Format: in vivo, female Swiss-Webster mice
# assay conditions: Staphylococcus aureus, ATCC13709; Dose 2.5 mg/kg, SC, 72 h; read-out: Survivors
Where a name gives a salt, the structure may show the parent alone.
Measured responders at 2.5 mg/kg accompanies every entry in the list below.
Enter the number, and then the unit.

Before answering, review these 2 worked examples.
Nc1nc(/C(=N/O)C(=O)N[C@@H]2C(=O)N3C(C(=O)O)=C(Sc4ccncc4CSC[C@H](N)CO)CS[C@H]23)c(Cl)s1 [Cmpd 65, trifluoroacetic acid salt]	30%
Nc1nc(/C(=N/O)C(=O)N[C@@H]2C(=O)N3C(C(=O)O)=C(Sc4ccncc4CSCC(N)CO)CS[C@H]23)c(Cl)s1 (stereo partly drawn) [Cmpd 56, trifluoroacetic acid salt]	80%

Note: attention shifts to another entry.
Which responders at 2.5 mg/kg is reported for this compound? N=C(N)SCc1cnccc1SC1=C(C(=O)O)N2C(=O)[C@@H](NC(=O)Cc3ccccc3)[C@H]2SC1 [Cmpd 1, trifluoroacetic acid salt]
100%
